The following sequences are shown together with reported binding signal values.
Target: POU2 (OCT2 POU domain);BOB1 (OBF1, OCA-B) (human;human, UniProt P09086;Q16633 175-386;1-256, |)
Sequence 1: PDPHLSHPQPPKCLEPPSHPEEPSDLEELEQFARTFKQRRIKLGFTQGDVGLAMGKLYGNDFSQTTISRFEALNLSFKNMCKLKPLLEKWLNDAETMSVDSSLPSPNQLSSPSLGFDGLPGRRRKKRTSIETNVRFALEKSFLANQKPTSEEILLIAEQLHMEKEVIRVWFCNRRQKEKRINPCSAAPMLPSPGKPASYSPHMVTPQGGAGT
Sequence 2: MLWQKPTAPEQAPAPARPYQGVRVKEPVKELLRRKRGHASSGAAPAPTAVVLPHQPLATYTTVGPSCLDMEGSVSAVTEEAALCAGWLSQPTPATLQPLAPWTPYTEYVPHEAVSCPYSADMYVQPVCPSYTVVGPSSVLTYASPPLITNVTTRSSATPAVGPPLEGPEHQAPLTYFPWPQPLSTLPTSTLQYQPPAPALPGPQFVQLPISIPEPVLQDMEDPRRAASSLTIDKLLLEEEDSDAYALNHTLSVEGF
Assay: EMSA-SELEX-seq; with BOB1 (ternary complex band); 20 mM Tris-HCl pH 7.6, 140 mM NaCl, 10% glycerol, 0.5 mM EDTA, 0.05% Triton X-100, 0.1 mg/mL BSA, 0.1 mg/mL poly(dI-dC), 5 mM DTT, room temperature, 20 min; high values mean tight binding
Conditions: protein: recombinant;recombinant; copies: 1;1; dsDNA, one strand shown
MEASURED ENDPOINT: binding signal

    construct_sequence                      reading
 0            AGTCAAAG  0.0966 % of ANNNNAAN 8-mers
 1            ATAATAAG   0.126 % of ANNNNAAN 8-mers
 2            ATCATAAT  0.0636 % of ANNNNAAN 8-mers
 3            AGTCGAAA  0.0322 % of ANNNNAAN 8-mers
 4            ATCCAAAG  0.0446 % of ANNNNAAN 8-mers
 5            AATGCAAT  0.0916 % of ANNNNAAN 8-mers
 6            AATTCAAC  0.0512 % of ANNNNAAN 8-mers
 7            AACGCAAT  0.0314 % of ANNNNAAN 8-mers
 8            AGGGCAAA  0.0462 % of ANNNNAAN 8-mers
 9            AATAAAAT   0.164 % of ANNNNAAN 8-mers
10            ATCGGAAT  0.0768 % of ANNNNAAN 8-mers
11            AATGGAAG  0.0792 % of ANNNNAAN 8-mers
12            AGGAGAAC  0.0149 % of ANNNNAAN 8-mers
13            AAGGTAAT   0.128 % of ANNNNAAN 8-mers
14            ACGCGAAA  0.0314 % of ANNNNAAN 8-mers
15            AACTAAAC  0.0264 % of ANNNNAAN 8-mers
16            AGATTAAT   0.106 % of ANNNNAAN 8-mers
17            AAGTGAAA  0.0627 % of ANNNNAAN 8-mers
18            ATACCAAT  0.0471 % of ANNNNAAN 8-mers
19            ATCACAAC  0.0165 % of ANNNNAAN 8-mers
20            ATATGAAA   0.239 % of ANNNNAAN 8-mers
21            ATTGCAAC  0.0272 % of ANNNNAAN 8-mers
22            AGCCAAAA  0.0305 % of ANNNNAAN 8-mers
23            ATAACAAT  0.0735 % of ANNNNAAN 8-mers
24            AGGTTAAA   0.052 % of ANNNNAAN 8-mers
25            AGCGTAAA  0.0396 % of ANNNNAAN 8-mers
26            AGGAGAAG  0.0438 % of ANNNNAAN 8-mers
27            ATAACAAA  0.0883 % of ANNNNAAN 8-mers
28            ATCGAAAA  0.0454 % of ANNNNAAN 8-mers
29            AGTAGAAT  0.0826 % of ANNNNAAN 8-mers
30            AATTTAAA   0.312 % of ANNNNAAN 8-mers
31            ATTTAAAA   0.137 % of ANNNNAAN 8-mers
32            ATCGCAAG  0.0206 % of ANNNNAAN 8-mers
33            AAAGCAAA  0.0908 % of ANNNNAAN 8-mers
34            ATCCTAAG  0.0405 % of ANNNNAAN 8-mers
35            AGCCAAAC  0.0182 % of ANNNNAAN 8-mers
36            ACCCCAAT   0.019 % of ANNNNAAN 8-mers
37            AACTTAAG  0.0363 % of ANNNNAAN 8-mers
